EXPERIMENT SUMMARY: qHTS for differential inhibitors of proliferation of Plasmodium falciparum line HB3 (AID 1886);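 further: parasites grown with compound for 72 h before SYBR Green readout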
SETTINGS: Plasmodium falciparum HB3 proliferation inhibition; series mostly up to 28.7 µM
Inconclusive results are not listed. The source made the active and inactive calls. The call rests on the fitted dose curve; in most records, active means well fitted curve in the direction sought with a large enough effect; inconclusive means small, poorly fitted or top-dose-only effect, or another doubt; inactive means no such curve, though single readings can be large or run the other way.
Output constraint: value belongs to yes = active, no = inactive

Please review the following examples before continuing.
[[record]]
compound = "O=C1Nc2ccc(I)cc2/C1=C/c1cc(Br)c(O)c(Br)c1"
group_label = "yes"

[[record]]
compound = "Cc1cccc(C2CN(C)CCc3c2cc(O)c(O)c3Cl)c1 (stereo not given)"
group_label = "yes"

[[record]]
compound = "NC(N)=NC(N)=Nc1cccc(Cl)c1"
group_label = "yes"

[[record]]
compound = "Oc1cc(O)c2c(c1)O[C@H](c1ccc(O)c(O)c1)[C@@H](O)C2"
group_label = "no"

[[record]]
compound = "O=c1[nH]c(=O)c2nc3ccccc3nc2[nH]1"
group_label = "no"

[[record]]
compound = "CC(N)(C(=O)O)c1ccc(C(=O)O)cc1 (stereo not given)"
group_label = "no"


q: Dear all, I need the recorded test outcome for C=CCN1CCc2c(cc(O)c(O)c2Cl)C(c2ccccc2)C1 (stereo not given) , thank you.
a: yes

q: Called result for Cc1cccc(C(=O)NCN2CCN(c3ccccc3C#N)CC2)c1
a: no
